All figures here come from the supplement of paper PMC13380429.

Field: cell viability. Provide a value for each of the compounds that follow.
Tested on: U2OS
METHOD SUMMARY: cell viability relative to DMSO; higher = less toxic
EXPERIMENTAL CONTEXT: 72 h; 10 nM
State just the number; it will be interpreted in %.

For the compound shown here, O=S(=O)(N[C@H]1CC[C@@](c2cc(F)ccc2F)(S(=O)(=O)c2ccc(Cl)cc2)CC1)C(F)(F)F [MRK-560] , give the reported cell viability.
102

Same thing, different compound: NC(=O)c1cccc(N)c1 [3-amino-benzamide]
106

Same thing, different compound: O=C(COc1cccc2c(=O)[nH]ccc12)c1ccccc1 [UPF-1069]
101

Same thing, different compound: CC(C)(C)NC(=O)N[C@H](C(=O)N1C[C@H]2[C@@H]([C@H]1C(=O)NC(CC1CCC1)C(=O)C(N)=O)C2(C)C)C(C)(C)C (some centres undefined) [boceprevir]
98.6

Same thing, different compound: COCCc1ccc(OCC(O)CNC(C)C)cc1 (centres undefined) [metoprolol]
109

Same thing, different compound: CC1(C)O[C@@H]2C[C@H]3[C@@H]4CCC5=CC(=O)C=C[C@]5(C)[C@@]4(F)[C@@H](O)C[C@]3(C)[C@]2(C(=O)CO)O1 [TRIAMCINOLONE ACETONIDE]
95.7

Same thing, different compound: Cc1c(C(=O)NN2CCOCC2)nn(-c2ccc(Cl)cc2Cl)c1-c1ccc(I)cc1 [AM-281]
101

Same thing, different compound: CC(=O)Nc1nnc(S(N)(=O)=O)s1 [acetazolamide]
101

Same thing, different compound: O=c1ncn2nc(Sc3ccc(F)cc3F)ccc2c1-c1c(Cl)cccc1Cl [VX-745]
108

Same thing, different compound: CCOC(=O)[C@H](CCc1ccccc1)N[C@@H](C)C(=O)N1CCC[C@H]1C(=O)O [enalapril]
101

Same thing, different compound: Cc1nccc2[nH]c(=O)ccc12 [medorinone]
100

Same thing, different compound: O=C(Nc1cccnc1)c1cc(-c2ccnc(F)c2)ccc1OCc1ccccc1
100

Same thing, different compound: CC[C@@H](CO)NC(=O)[C@@H]1C=C2c3cccc4c3c(cn4C)C[C@H]2N(C)C1 [methysergide]
96.1

Same thing, different compound: N#C/C(=C\c1ccc(O)cc1)C(=O)O [CHC]
93.4

Same thing, different compound: O[C@@](Cc1nc(CC2(C(F)(F)F)CC2)c[nH]1)(c1ccc(-n2cccn2)cc1)C(F)(F)F [MK-5046]
96.9

Same thing, different compound: Nc1ncnc2c1nc(Br)n2[C@@H]1O[C@@H]2COP(=O)(O)O[C@H]2[C@H]1O [8-bromo-cAMP]
96.8

Same thing, different compound: NS(=O)(=O)C#Cc1ccccc1 [pifithrin-mu]
97.5

Same thing, different compound: Oc1ccc2c3c1O[C@H]1c4[nH]c5ccccc5c4C[C@@]4(O)[C@@H](C2)N(CC2CC2)CC[C@]314 [naltrindole]
100

Same thing, different compound: O=c1cc(N2CCOCC2)nc2c3ccccc3ccn12 [compound-401]
99.8

Same thing, different compound: CCCC(=O)O[C@]1(C(=O)CCl)[C@@H](C)C[C@H]2[C@@H]3CCC4=CC(=O)C=C[C@]4(C)[C@@]3(F)C(=O)C[C@@]21C [clobetasone-butyrate]
96.1

Same thing, different compound: CCOc1ccc(-n2c([C@@H](C)N(Cc3cccnc3)C(=O)Cc3ccc(F)c(C(F)(F)F)c3)nc3ncccc3c2=O)cc1 (racemic)
96

Same thing, different compound: Cc1cc(=O)n(-c2ccccc2)[nH]1 [N-demethylantipyrine]
99.7

Same thing, different compound: CCCCCCCCCCC(C)(C)C(=O)Nc1c(OC)cc(OC)cc1OC [CI-976]
101

Same thing, different compound: C=C1/C(=C\C=C2/CCC[C@]3(C)[C@@H]([C@H](C)CCCC(C)(C)O)CC[C@@H]23)C[C@@H](O)C[C@@H]1O [calcitriol]
104

Same thing, different compound: Clc1ccc(Cn2c(CN3CCCC3)nc3ccccc32)cc1 [clemizole]
97.7

Same thing, different compound: O=C(O)Cc1ccc(OCCNC[C@H](O)c2ccccc2)cc1 [ZD-2079]
94.8

Same thing, different compound: CCc1ccc(Cc2ccc3c(c2)[C@]2(OC3)O[C@H](CO)[C@@H](O)[C@H](O)[C@H]2O)cc1 [tofogliflozin]
96.9

Same thing, different compound: CC(C)[C@@H](CS(=O)(=O)C(C)C)N1C(=O)[C@@](C)(CC(=O)O)C[C@H](c2cccc(Cl)c2)[C@H]1c1ccc(Cl)cc1 [AMG-232]
95.5

Same thing, different compound: CN1C(=O)N[C@H](Cc2c[nH]c3c(Cl)cccc23)C1=O [necrostatin-2]
109

Same thing, different compound: O=C(NC[C@H]1CN(c2ccc(N3CCOCC3=O)cc2)C(=O)O1)c1ccc(Cl)s1 [Rivaroxaban (Xarelto)]
99.1

Same thing, different compound: Cc1ccc(S(=O)(=O)NC(=O)NN2CCCCCC2)cc1 [tolazamide]
97

Same thing, different compound: CN(C(=O)c1ccc(F)cc1C(F)(F)F)C1CCN(c2nnc(-c3ccnn3C)c3ccccc23)CC1 [taladegib]
101

Same thing, different compound: Nc1ccn([C@@H]2CS[C@H](CO)O2)c(=O)n1 [lamivudine]
102

Same thing, different compound: NC(CO)(CO)CO [trometamol]
96.6

* * *

Test system: A549-ACE2
METHOD SUMMARY: drug-induced phospholipidosis relative to tamoxifen; higher = more phospholipidosis
EXPERIMENTAL CONTEXT: 0.833333 µM; 48 h
EXPERIMENTAL ENDPOINT: drug-induced phospholipidosis (%)
State just the number; it will be interpreted in %.

Checklist item: drug-induced phospholipidosis tested on A549-ACE2, entry NS(=O)(=O)C#Cc1ccccc1 , value?
-0.12

Same thing, different compound: CC1=C(C(=O)OC2CCCCC2)C(c2ccc([N+](=O)[O-])cc2)C2=C(CC(C)(C)CC2=O)N1 (stereo not given)
2.95

Same thing, different compound: CN1CCC(CNc2ccc3ncc(-c4cccc(OC(F)(F)F)c4)n3n2)CC1
0.46

Same thing, different compound: CC/C(=C(/c1ccc(OCCN(C)C)cc1)c1cccc(O)c1)c1ccccc1
8.41

Same thing, different compound: COc1cc2ncnc(Nc3cccc(Br)c3)c2cc1OC
-1.17

* * *

Test system: Calu-3
METHOD SUMMARY: cell viability relative to DMSO; higher = less toxic
EXPERIMENTAL CONTEXT: 72 h; 1000 nM
Field: cell viability. Provide a value for each of the molecules that follow.
State just the number; it will be interpreted in %.

For the molecule shown here, C[C@H](Cc1cc2c(c(C(N)=O)c1)N(CCCO)CC2)NCCOc1ccccc1OCC(F)(F)F , give the reported cell viability.
101

Same thing, different molecule: N#Cc1cccc(-c2c[nH]c3ncnc(N4CCOCC4)c23)c1
99.6

Same thing, different molecule: CC(=O)Nc1ccc(Cc2ccc(NC(C)=O)cc2)cc1
92.8

Same thing, different molecule: CN(C)/N=N/c1[nH]cnc1C(N)=O
110

Same thing, different molecule: C[C@]12CCC(=O)C=C1CC[C@@H]1[C@@H]2CC[C@@]2(C)[C@H]1CC[C@]2(O)C(=O)CO
97.8

* * *

Tested on: Caco-2
METHOD SUMMARY: cell viability relative to DMSO; higher = less toxic
EXPERIMENTAL CONTEXT: 72 h; 100 nM
Field: cell viability. Provide a value for each of the compounds that follow.
State just the number; it will be interpreted in %.

For the compound shown here, Cc1ccc(N(CC2=NCCN2)c2cccc(O)c2)cc1 , give the reported cell viability.
109

Same thing, different compound: C[N+]1(C)CCc2cc3c(cc2[C@H]1[C@@H]1OC(=O)c2c1ccc1c2OCO1)OCO3 [bicuculline-methochloride-(-)]
98

Same thing, different compound: CCCCCCCCCCCC(=O)N(CCO)CCO [lauric-diethanolamide]
98.7

Same thing, different compound: CCc1ccc(Cc2ccc3c(c2)[C@]2(OC3)O[C@H](CO)[C@@H](O)[C@H](O)[C@H]2O)cc1
86.1

Same thing, different compound: CCCC(=O)O[C@]1(C(=O)CCl)[C@@H](C)C[C@H]2[C@@H]3CCC4=CC(=O)C=C[C@]4(C)[C@@]3(F)C(=O)C[C@@]21C [clobetasone-butyrate]
94.1

Same thing, different compound: C[C@H](NC(=O)CNC(=O)c1cccc(Cl)c1)c1ccccc1
96.6

Same thing, different compound: Cc1cc(N2CCOCC2)cc2[nH]c(-c3c(NC[C@@H](O)c4cccc(Cl)c4)cc[nH]c3=O)nc12
99.4

Same thing, different compound: CN1CCC(CNc2ccc3ncc(-c4cccc(OC(F)(F)F)c4)n3n2)CC1
101

Same thing, different compound: CC(N)C12CC3CC(CC(C3)C1)C2 (stereo unspecified)
101

Same thing, different compound: C=C[C@]1(C)C[C@@H](OC(=O)CS[C@@H]2C[C@H]3CC[C@@H](C2)N3C)[C@]2(C)[C@H](C)CC[C@]3(CCC(=O)[C@H]32)[C@@H](C)[C@@H]1O
112

Same thing, different compound: COc1ccc(-n2nc(C(F)(F)F)cc2-c2ccc(Cl)cc2)cc1
95.7

Same thing, different compound: CC(=O)c1cc2c(o1)C(=O)c1ccccc1C2=O
95.3

Same thing, different compound: CCCCc1ccc(O)cc1O
83.5

Same thing, different compound: CC1/C=C/C=C/C=C/C=C/C=C/C=C/C=C/C(OC2O[C@H](C)[C@@H](O)[C@H](N)[C@@H]2O)CC(O)C(C(=O)O)C(O)CC(=O)CC(O)CC(O)CC(O)CC(=O)CCCC(=O)CC(=O)OC1C(C)CC(C)C(O)CC(=O)c1ccc(N)cc1 (stereo partly specified)
87.1

Same thing, different compound: CN(C)/N=N/c1[nH]cnc1C(N)=O
97

Same thing, different compound: Nc1sc2c(c1C(=O)c1ccc(Cl)cc1)CCCC2
88.8
